# Tested on: Klebsiella pneumoniae strain MS6771
# ASSAY METHOD TEXT: MIC by broth microdilution (CLSI)
# Type: cell-based
# MEASUREMENT CONDITIONS: Klebsiella pneumoniae, MS6771, Klebsiella pneumoniae; PBT2: 64 μM, Zinc: 256 μM; read-out: MIC
// MIC lookup, one value per entry
Please state the figure in µg/mL; there is no need to write the unit.

Below are worked cases with known answers.
1. CN(C)[C@@H]1C(O)=C(C(N)=O)C(=O)[C@@]2(O)C(O)=C3C(=O)c4c(O)cccc4[C@@](C)(O)[C@H]3C[C@@H]12 = 4
2. C[C@H]1c2cccc(O)c2C(=O)C2=C(O)[C@]3(O)C(=O)C(C(N)=O)=C(O)[C@@H](N(C)C)[C@@H]3[C@@H](O)[C@@H]21 = 4
3. CO[C@@]1(NC(=O)Cc2cccs2)C(=O)N2C(C(=O)O)=C(COC(N)=O)CS[C@@H]21 = 64
4. CC(C)(O/N=C(\C(=O)N[C@@H]1C(=O)N2C(C(=O)[O-])=C(C[n+]3ccccc3)CS[C@H]12)c1csc(N)n1)C(=O)O = 32
5. O=C(N[C@H](CO)[C@H](O)c1ccc([N+](=O)[O-])cc1)C(Cl)Cl = 128

Exam item: What value of measured MIC is listed for C[C@@H](O)[C@H]1C(=O)N2C(C(=O)O)=C(S[C@@H]3CN[C@H](C(=O)N(C)C)C3)[C@H](C)[C@H]12 ?
Marked response: 16
